# measured-target: human ether-à-go-go-related gene (hERG) potassium channel (human, UniProt Q12809);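 note: peak tail current of the secondary pulse compared with the same well before compound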
# Sequence (Q12809 whole entry, looked up): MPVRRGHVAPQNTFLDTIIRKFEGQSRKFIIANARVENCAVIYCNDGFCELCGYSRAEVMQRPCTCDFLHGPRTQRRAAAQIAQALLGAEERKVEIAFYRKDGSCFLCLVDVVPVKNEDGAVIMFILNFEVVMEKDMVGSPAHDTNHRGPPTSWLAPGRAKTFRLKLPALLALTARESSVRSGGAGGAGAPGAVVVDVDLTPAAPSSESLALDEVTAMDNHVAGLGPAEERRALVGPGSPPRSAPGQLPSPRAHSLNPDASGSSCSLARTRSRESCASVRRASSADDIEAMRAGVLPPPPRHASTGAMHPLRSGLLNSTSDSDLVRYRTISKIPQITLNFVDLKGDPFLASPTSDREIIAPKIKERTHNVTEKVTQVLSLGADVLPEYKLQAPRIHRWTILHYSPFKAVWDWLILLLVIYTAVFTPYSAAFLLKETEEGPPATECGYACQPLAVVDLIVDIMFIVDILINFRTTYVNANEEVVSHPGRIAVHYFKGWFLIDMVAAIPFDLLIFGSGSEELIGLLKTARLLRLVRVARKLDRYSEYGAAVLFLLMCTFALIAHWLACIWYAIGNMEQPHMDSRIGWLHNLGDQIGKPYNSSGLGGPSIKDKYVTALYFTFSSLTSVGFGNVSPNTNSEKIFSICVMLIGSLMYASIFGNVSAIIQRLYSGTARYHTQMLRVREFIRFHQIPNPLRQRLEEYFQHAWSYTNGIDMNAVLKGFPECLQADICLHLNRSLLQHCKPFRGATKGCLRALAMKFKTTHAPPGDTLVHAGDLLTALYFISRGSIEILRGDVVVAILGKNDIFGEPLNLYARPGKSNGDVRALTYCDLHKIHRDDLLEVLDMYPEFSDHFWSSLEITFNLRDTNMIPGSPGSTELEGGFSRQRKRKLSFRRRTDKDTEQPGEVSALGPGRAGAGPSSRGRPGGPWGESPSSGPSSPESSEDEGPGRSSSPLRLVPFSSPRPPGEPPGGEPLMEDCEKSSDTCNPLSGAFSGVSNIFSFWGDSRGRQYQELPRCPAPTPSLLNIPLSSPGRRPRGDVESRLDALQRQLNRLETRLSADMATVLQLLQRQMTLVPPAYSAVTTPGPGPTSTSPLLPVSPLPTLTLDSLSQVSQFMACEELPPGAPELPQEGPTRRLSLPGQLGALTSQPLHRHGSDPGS
# method-description: primary screen, population patch clamp on CHO cells stably expressing hERG; higher = less effect of the substance
Among all 310,000 compounds or so, about 14,000 (4.5%) showed an effect of 50% or more. Effects have a minus sign here. The full list was thinned out, with strong results kept by preference.
assay-readout: hERG current change (%, negative = inhibition) at 10uM

compound=CC(C)(Oc1ccc(Cl)cc1)C(=O)NC1CCN(Cc2ccccc2)CC1 assay_value=-70.4%
compound="O=C(c1ccc(COc2ccc3ccccc3c2)o1)N1N=C(C(F)F)CC1(O)C(F)F (centres unmarked)" assay_value=-2.62%
compound=Cc1ccc(NC(=O)c2sc3nc(C)nc(N4CCN(c5ccccn5)CC4)c3c2C)c(C)c1 assay_value=-40.1%
compound=COc1cc(C(=O)NC2CCN(Cc3ccccc3)CC2)cc(Cl)c1OC assay_value=-44.3%
compound="CCOC(=O)C(c1ccccc1)N1CCN(c2ccc(OC)cc2)CC1 (centres unmarked)" assay_value=4.91%
compound=COc1ccc([N+](=O)[O-])cc1NC(=O)CCN1CCN(C)CC1 assay_value=16.3%
compound=COc1ccc(OCC(=O)NS(=O)(=O)c2ccccc2)cc1 assay_value=15.3%
compound=CC(C)c1nnc(NC(=O)CCS(=O)(=O)c2ccccc2)s1 assay_value=19.5%
compound=Cc1ccc(/C=C(\NC(=O)c2ccccc2)C(=O)NCCN2CCOCC2)o1 assay_value=-3.91%
compound=Cc1cccc(NC(=O)c2sc3ncn(CC(=O)N4CCN(c5ccccn5)CC4)c(=O)c3c2C)c1 assay_value=-61.4%
compound="CCC1CCC/C1=N\\NC(=O)c1ccccc1Cl (centres unmarked)" assay_value=19.2%
compound=COc1ccc(NC(=O)c2sccc2-n2cccc2)cc1 assay_value=3.64%
compound="CCOC(=O)C1C(c2cccc(F)c2)NC(=S)NC1(O)C(F)(F)F (centres unmarked)" assay_value=-14.4%
compound=Cc1nc(N2CCN(c3ccccn3)CC2)c2c(C)c(C(=O)Nc3ccc(F)cc3)sc2n1 assay_value=-76.4%
compound="Cc1ccc(/C=C(\\NC(=O)c2ccccc2)C(=O)NCC2CCCO2)o1 (centres unmarked)" assay_value=-5.4%
compound=COC(=O)c1ccc(NC(=O)CSCc2ccccc2)cc1 assay_value=-13.8%
compound=COc1cc(C(=O)NC2CCN(Cc3ccccc3)CC2)cc(Cl)c1OC(C)C assay_value=-61.2%
compound=Cc1ccc(/C=C(\NC(=O)c2ccccc2)C(=O)NC2CCN(Cc3ccccc3)CC2)o1 assay_value=-55.5%
compound=CCc1ccc(NC(=O)c2sc3nc(C)nc(N4CCN(c5ccccn5)CC4)c3c2C)cc1 assay_value=5.47%
compound=C=C(C)c1cccc(C(C)(C)NC(=O)NC2CCN(Cc3ccccc3)CC2)c1.Cl assay_value=-55.5%

====

# measured-target: human ether-à-go-go-related gene (hERG) potassium channel (human, UniProt Q12809);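 note: peak tail current of the secondary pulse compared with the same well before compound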
# method-description: primary screen, population patch clamp on CHO cells stably expressing hERG; higher = less effect of the substance
# Protocol: Briefly, Chinese hamster ovary (CHO) cells stably expressing the hERG channel were dislodged from tissue culture flasks and dispensed into PPC plates. […] During the recording, background leak currents were estimated by a 100 ms step to -80 mV from an initial holding potential of -70 mV and subtracted from the subsequent current measurement. The campaign was conducted in two phases using slight differences in recording protocol. […]
Out of some 310,000 compounds screened, about 14,000 (4.5%) showed an effect of 50% or more. Effects have a minus sign here. Shown is part of a subset that was picked to be rich in strong results.
assay-readout: hERG current change (%, negative = inhibition) at 10uM (%)

compound=CCC(=O)Oc1cccc(C(=O)Nc2cccc(NC(=O)c3ccco3)c2)c1 measured_target="human ether-à-go-go-related gene (hERG) potassium channel (human, UniProt Q12809)" assay_value=-1.06
compound="COc1ccc(OC)c(N2C(=O)CC(Cc3ccc(C)cc3)C2=O)c1 (centres unmarked)" measured_target="human ether-à-go-go-related gene (hERG) potassium channel (human, UniProt Q12809)" assay_value=-2.87
compound=COc1cc2nc(SCC(=O)c3ccc(Br)cc3)n3nc(C)nc3c2cc1OC measured_target="human ether-à-go-go-related gene (hERG) potassium channel (human, UniProt Q12809)" assay_value=-17.7
compound=Cc1nc2nc(-c3ccc(Cl)cc3)nn2c(C)c1Cl measured_target="human ether-à-go-go-related gene (hERG) potassium channel (human, UniProt Q12809)" assay_value=8.82
compound="Cc1cc(N2CC34C=CC(O3)C(C(=O)O)C4C2=O)no1 (centres unmarked)" measured_target="human ether-à-go-go-related gene (hERG) potassium channel (human, UniProt Q12809)" assay_value=2.22
compound=CC(=O)c1cccc(NC(=O)/C(=C\c2ccco2)NC(=O)c2cccs2)c1 measured_target="human ether-à-go-go-related gene (hERG) potassium channel (human, UniProt Q12809)" assay_value=-9.8
compound=COCCSc1ccccc1C(=O)NCc1cccnc1 measured_target="human ether-à-go-go-related gene (hERG) potassium channel (human, UniProt Q12809)" assay_value=18.7
compound=CC(C)N(CCc1ccncc1)C(=S)Nc1ccc(F)c(Cl)c1 measured_target="human ether-à-go-go-related gene (hERG) potassium channel (human, UniProt Q12809)" assay_value=-71.7
compound="CCCn1c(=O)n(C)c(=O)c2c(SCC(=O)NCC(c3ccccc3)N(C)C)nc(CC(C)C)nc21 (centres unmarked)" measured_target="human ether-à-go-go-related gene (hERG) potassium channel (human, UniProt Q12809)" assay_value=-66.1
compound=CCCn1c(=O)n(C)c(=O)c2c(SCC(=O)NC34CC5CC(CC(C5)C3)C4)nc(CC(C)C)nc21 measured_target="human ether-à-go-go-related gene (hERG) potassium channel (human, UniProt Q12809)" assay_value=8.5
compound=CS(=O)(=O)c1cccc(C(=O)NCc2ccc(F)cc2)c1 measured_target="human ether-à-go-go-related gene (hERG) potassium channel (human, UniProt Q12809)" assay_value=0.5
compound=COc1ccc(OC)c(NC(=O)Cc2coc3cc(C)cc(C)c23)c1 measured_target="human ether-à-go-go-related gene (hERG) potassium channel (human, UniProt Q12809)" assay_value=1.9
compound="CC(NCCO)C(=O)C12CC3CC(CC(C3)C1)C2.Cl (centres unmarked)" measured_target="human ether-à-go-go-related gene (hERG) potassium channel (human, UniProt Q12809)" assay_value=13.1
compound=CC(C)CN(C(=O)c1ccc([N+](=O)[O-])s1)c1c(N)n(Cc2ccccc2)c(=O)[nH]c1=O measured_target="human ether-à-go-go-related gene (hERG) potassium channel (human, UniProt Q12809)" assay_value=10.3
compound=COc1cc2nc(C(C)(C)C)oc(=O)c2cc1OC measured_target="human ether-à-go-go-related gene (hERG) potassium channel (human, UniProt Q12809)" assay_value=10.6
compound="CCOc1cc(C2NC(=O)NC(C)=C2C(C)=O)cc(Cl)c1OCC(=O)O (centres unmarked)" measured_target="human ether-à-go-go-related gene (hERG) potassium channel (human, UniProt Q12809)" assay_value=5.35
compound=Cl.FC(F)(F)c1cccc(N2CCNCC2)c1 measured_target="human ether-à-go-go-related gene (hERG) potassium channel (human, UniProt Q12809)" assay_value=-13.3
compound=Cn1nc(C(F)(F)F)c(C#N)c1N1CCN(c2cccc(C(F)(F)F)c2)CC1 measured_target="human ether-à-go-go-related gene (hERG) potassium channel (human, UniProt Q12809)" assay_value=3.01
compound=Cc1ccc(C)c(NC(=S)N(CCc2ccncc2)C(C)C)c1 measured_target="human ether-à-go-go-related gene (hERG) potassium channel (human, UniProt Q12809)" assay_value=-42.1
compound="CC(C)Cc1nc(SCC(=O)NCC2CCCO2)c2c(=O)n(C)c(=O)n(C)c2n1 (centres unmarked)" measured_target="human ether-à-go-go-related gene (hERG) potassium channel (human, UniProt Q12809)" assay_value=-0.141
compound=O=C(COc1ccccc1O)Nc1ccccc1Cl measured_target="human ether-à-go-go-related gene (hERG) potassium channel (human, UniProt Q12809)" assay_value=-4.32
compound=CC(C)(C)c1ccc(C(=O)NCC(=O)OCc2ccc([N+](=O)[O-])cc2)cc1 measured_target="human ether-à-go-go-related gene (hERG) potassium channel (human, UniProt Q12809)" assay_value=-7.46
compound=O=C1NC(=O)/C(=C\c2ccccc2OCc2cccc([N+](=O)[O-])c2)N1 measured_target="human ether-à-go-go-related gene (hERG) potassium channel (human, UniProt Q12809)" assay_value=-5.66
compound=CSc1nncc(-c2ccc(F)c(F)c2)n1 measured_target="human ether-à-go-go-related gene (hERG) potassium channel (human, UniProt Q12809)" assay_value=10.8
compound=Cc1c(NC(=S)NC(=O)c2ccccc2Cl)c(=O)n(-c2ccccc2)n1C measured_target="human ether-à-go-go-related gene (hERG) potassium channel (human, UniProt Q12809)" assay_value=33.4
compound=CC(C)OCCCNC(=O)c1cccs1 measured_target="human ether-à-go-go-related gene (hERG) potassium channel (human, UniProt Q12809)" assay_value=-9.39
compound=COc1cccc(-n2nnc3c(=O)n(CC(=O)OCc4ccccc4)cnc32)c1 measured_target="human ether-à-go-go-related gene (hERG) potassium channel (human, UniProt Q12809)" assay_value=9.39
compound=Cc1cc(Cl)ccc1OCC(=O)N/N=C1\CCCc2ccccc21 measured_target="human ether-à-go-go-related gene (hERG) potassium channel (human, UniProt Q12809)" assay_value=-0.309
compound=Cl.O=C(O)c1cc(S(=O)(=O)N2CCN(C(c3ccccc3)c3ccccc3)CC2)ccc1Cl measured_target="human ether-à-go-go-related gene (hERG) potassium channel (human, UniProt Q12809)" assay_value=14.7
compound=Cc1cc(C)c(NC(=S)N(CCc2ccncc2)C(C)C)c(C)c1 measured_target="human ether-à-go-go-related gene (hERG) potassium channel (human, UniProt Q12809)" assay_value=-8.82
compound="O=C(C1=C(O)C(=O)N(CCN2CCOCC2)C1c1ccccc1)c1cccs1 (centres unmarked)" measured_target="human ether-à-go-go-related gene (hERG) potassium channel (human, UniProt Q12809)" assay_value=-2.27
compound=Cc1cccc(NC(=S)N(CCc2ccncc2)C(C)C)c1C measured_target="human ether-à-go-go-related gene (hERG) potassium channel (human, UniProt Q12809)" assay_value=-8.61
compound=Cn1c(=O)c2c(SCC(=O)N3CCOCC3)nc(-c3ccccc3F)nc2n(C)c1=O measured_target="human ether-à-go-go-related gene (hERG) potassium channel (human, UniProt Q12809)" assay_value=-8.27
compound=CCOc1ccc(NC(=S)N(CCc2ccncc2)C(C)C)cc1 measured_target="human ether-à-go-go-related gene (hERG) potassium channel (human, UniProt Q12809)" assay_value=-50.6
compound=Oc1c(N=NC(=S)Nc2ccccc2F)c2ccccc2n1Cc1ccc(F)cc1 measured_target="human ether-à-go-go-related gene (hERG) potassium channel (human, UniProt Q12809)" assay_value=18.7
compound="CC1=C(C(=O)OC(C)C)C(c2ccncc2)n2ncnc2N1 (centres unmarked)" measured_target="human ether-à-go-go-related gene (hERG) potassium channel (human, UniProt Q12809)" assay_value=0.568
compound=CC(C)NC(=S)N(CCc1ccncc1)C(C)C measured_target="human ether-à-go-go-related gene (hERG) potassium channel (human, UniProt Q12809)" assay_value=17.3
compound=CC(C)N(CCc1ccncc1)C(=S)Nc1cccc(Cl)c1 measured_target="human ether-à-go-go-related gene (hERG) potassium channel (human, UniProt Q12809)" assay_value=-71.3
compound="CSc1cccc(N2CC(C(=O)NCCC3=CCCCC3)CC2=O)c1 (centres unmarked)" measured_target="human ether-à-go-go-related gene (hERG) potassium channel (human, UniProt Q12809)" assay_value=14.1
compound=c1ccc(-c2cc3c(nn2)CCc2nonc2-3)cc1 measured_target="human ether-à-go-go-related gene (hERG) potassium channel (human, UniProt Q12809)" assay_value=0.384
compound=COc1ccccc1N1CCN(c2cc(N3CCCC3)nc(C)n2)CC1 measured_target="human ether-à-go-go-related gene (hERG) potassium channel (human, UniProt Q12809)" assay_value=-65.3
